The reported measurements were obtained from patent US12441768B2.

# reported pKd; entries follow
system: β-catenin (Homo sapiens, UniProt P35222)
assay.remarks: KD50 measurement using competitive fluorescence polarization (FP) with labelled TCF4
Assay type: binding
assay.setup: fluorescence polarization, β-catenin; read-out: β-Cat FP KD
pKd: −log10 of the molar value. Where a SMILES comes first, the peptide text is derived from it.

compound	pKd
CC[C@H](C)[C@H](NC(=O)[C@H](CC(C)C)NC(=O)[C@@H](NC(=O)[C@H](Cc1c[nH]c2ccccc12)NC(=O)[C@H](CCSC)NC(C)=O)[C@@H](C)CC)C(=O)N[C@@H](CO)C(=O)N[C@@H](Cc1ccccc1)C(=O)N[C@@H](Cc1c[nH]c2ccccc12)C(=O)NCC(=O)O [compound 165] (Ac-MWILISFWG-OH)	> 6.40
CC[C@H](C)[C@H](NC(=O)[C@H](CC(C)C)NC(=O)[C@H](Cc1ccccc1)NC(=O)[C@H](Cc1c[nH]c2ccccc12)NC(=O)[C@@H](N)CCSC)C(=O)N[C@@H](CS)C(=O)N[C@@H](Cc1ccccc1)C(=O)N[C@@H](Cc1c[nH]c2ccccc12)C(=O)NCCCC(=O)O [compound 153] (HELM PEPTIDE1{M.W.F.L.I.C.F.W.[O=C(O)CCCN[*:1]]}$$$$V2.0)	< 4.52

---

Recorded pKd by entry
system: β-catenin (Homo sapiens, UniProt P35222)
Sequence (P35222 1-781): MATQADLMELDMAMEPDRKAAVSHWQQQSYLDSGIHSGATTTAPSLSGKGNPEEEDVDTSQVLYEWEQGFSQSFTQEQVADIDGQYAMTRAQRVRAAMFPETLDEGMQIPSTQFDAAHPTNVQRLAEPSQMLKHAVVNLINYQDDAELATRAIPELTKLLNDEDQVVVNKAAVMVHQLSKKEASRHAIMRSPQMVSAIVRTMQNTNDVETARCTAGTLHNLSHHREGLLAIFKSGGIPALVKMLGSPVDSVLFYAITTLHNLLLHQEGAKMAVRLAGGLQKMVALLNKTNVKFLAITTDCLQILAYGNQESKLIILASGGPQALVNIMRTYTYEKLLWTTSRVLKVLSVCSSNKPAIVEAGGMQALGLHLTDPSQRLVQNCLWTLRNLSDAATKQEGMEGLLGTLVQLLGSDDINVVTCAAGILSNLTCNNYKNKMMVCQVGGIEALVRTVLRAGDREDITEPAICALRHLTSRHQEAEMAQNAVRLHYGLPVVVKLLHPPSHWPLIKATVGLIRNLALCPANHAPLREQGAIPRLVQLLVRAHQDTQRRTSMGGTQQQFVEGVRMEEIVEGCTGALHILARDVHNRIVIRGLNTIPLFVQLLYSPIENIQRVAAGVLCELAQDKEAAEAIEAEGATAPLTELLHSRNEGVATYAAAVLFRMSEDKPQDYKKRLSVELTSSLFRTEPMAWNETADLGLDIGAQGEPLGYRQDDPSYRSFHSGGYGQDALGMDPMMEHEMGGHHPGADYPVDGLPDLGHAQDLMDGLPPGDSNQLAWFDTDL
assay.remarks: KD50 measurement using competitive fluorescence polarization (FP) with labelled TCF4
Format: binding
assay.setup: fluorescence polarization, β-catenin; read-out: β-Cat FP KD
pKd: −log10 of the molar value. Where a SMILES comes first, the peptide text is derived from it.
reported.property: pKd

molecule	reported.value
CC[C@H](C)[C@H](NC(=O)[C@H](CC(C)C)NC(=O)[C@@H](NC(=O)[C@H](Cc1c[nH]c2ccccc12)NC(=O)[C@H](CCSC)NC(C)=O)[C@@H](C)CC)C(=O)N[C@@H](CO)C(=O)N[C@@H](Cc1ccccc1)C(=O)N[C@@H](Cc1c[nH]c2ccccc12)C(=O)NCCCC(=O)O [compound 240] (HELM PEPTIDE1{[ac].M.W.I.L.I.S.F.W.[O=C(O)CCCN[*:1]]}$$$$V2.0)	> 6.40
CC[C@H](C)[C@@H]1NC(=O)[C@H](CC(C)C)NC(=O)[C@H](Cc2ccccc2)NC(=O)[C@H](Cc2c[nH]c3ccccc23)NC(=O)[C@H](CCSC)NC(=O)[C@@H](N)CCCCNC(=O)CC[C@@H](C(=O)N[C@@H](Cc2c[nH]c3ccccc23)C(=O)NCC(=O)O)NC(=O)[C@H](CS)NC1=O [compound 180] (HELM PEPTIDE1{K.M.W.F.L.I.C.E.W.G}$PEPTIDE1,PEPTIDE1,1:R3-8:R3$$$V2.0)	< 4.52
CC[C@H](C)[C@H](NC(=O)[C@H](CC(C)C)NC(=O)[C@H](Cc1ccccc1)NC(=O)[C@H](Cc1c[nH]c2ccccc12)NC(=O)[C@H](CCSC)NC(=O)[C@H](CCCNC(=N)N)NC(=O)[C@H](CO)NC(=O)[C@@H](N)CCSC)C(=O)N[C@@H](CO)C(=O)N[C@@H](Cc1ccccc1)C(=O)N[C@@H](Cc1c[nH]c2ccccc12)C(=O)N(C)[C@@H](C)C(=O)NCC(=O)O [compound 16] (HELM PEPTIDE1{M.S.R.M.W.F.L.I.S.F.W.[meA].G}$$$$V2.0)	< 4.52
